- procedure.details: logP by HPLC on reversed-phase column (C 18), EEC Directive 79/831 Annex V.A8
- Type: physicochemical
- recorded.conditions: HPLC, 0.1% aqueous formic acid and acetonitrile, 40° C.; pH 2.3
measured.parameter: logPa

CCN(C)C=Nc1cc(C)c(Oc2nc(Cl)ncc2C)cc1C | 1.42
CCN(C)C=Nc1cc(C)c(Oc2cc(N(C)CC)ncn2)cc1C | 1.46
CCCN(C)C=Nc1cc(C)c(Oc2nccc(C(F)(F)F)n2)cc1C | 1.7
CCN(C)C=Nc1cc(C)c(Oc2ccnc(Oc3ccc(OC)c(OC)c3)n2)cc1C | 1.65
CCN(C)C=Nc1cc(C)c(Oc2ccnc(N(C)CC)n2)cc1C | 0.82
CCN(C)C=Nc1cc(C)c(Oc2ccnc(Oc3ccc(Cl)cc3)n2)cc1C | 2.11
CCc1ncnc(Oc2cc(C)c(N=CN3CCCCC3)cc2C)c1Cl | 1.98
Cc1cc(Oc2cc(C)c(N=CN(C)C(C)C)cc2C)nc(Cl)n1 | 1.57

[I] CCCN(C)C=Nc1cc(C)c(Oc2ccnc(OC)n2)cc1C
[II] Cc1cccc(Oc2nccc(Oc3cc(C)c(N=CN4CCCCC4)cc3C)n2)c1
Exercise: Could you tell me which of these two has the smaller logPa figure? First: I Second: II Kindly give the label for the entry you pick.
Solution: I

[I] CCN(C)C=Nc1cc(C)c(Oc2cc(Cl)nc(Cl)n2)cc1C
[II] Cc1cc(Oc2ccnc(N3C=NCC3)n2)c(C)cc1N=CN(C)C(C)C
Exercise: Could you tell me which of these two has the smaller logPa figure? First: I Second: II Kindly give the label for the entry you pick.
Solution: II
(II: 1.01, I: 1.67)

====

- procedure.details: logP by HPLC on reversed-phase column (C 18), EEC Directive 79/831 Annex V.A8
- Format: physicochemical
- recorded.conditions: HPLC, 0.1% aqueous formic acid and acetonitrile, 40° C.; pH 2.3
measured.parameter: logPa

[P] CCN(C)C=Nc1cc(C)c(Oc2ccnc(Oc3ccc(C(F)(F)F)cc3)n2)cc1C
[Q] Cc1cc(Oc2ccnc(N3CCCCC3)n2)c(C)cc1N=CN(C)C(C)C
[R] CCCN(C)C=Nc1cc(C)c(Oc2ccnc(N(C)C)n2)cc1C
Exercise: In a descending ranking, list each entry from above by its logPa, from the largest value down to the smallest. Would you mind listing the labels in the order asked for?
Solution: P, Q, R
(P: 2.37, Q: 1.56, R: 0.89)

[A] CCCN(C)C=Nc1cc(C)c(Oc2ncc(Cl)c(N(C)CC)n2)cc1C
[B] CCN(C)C=Nc1cc(C)c(Oc2ccnc(N3CCOCC3)n2)cc1C
Exercise: Recorded logPa values differ for A and B ; which one is higher? Kindly give the label for the entry you pick.
Solution: A
(A: 1.95, B: 1.3)

[A] Cc1cc(Oc2ccnc(Oc3ccc(C(F)(F)F)cc3)n2)c(C)cc1N=CN1CCCCC1
[B] COc1nccc(Oc2cc(C)c(N=CN(C)C(C)C)cc2C)n1
Exercise: Could you tell me which of these two has the smaller logPa figure? First: A Second: B Kindly give the label for the entry you pick.
Solution: B

[1] CCN(C)C=Nc1cc(C)c(Oc2ccnc(Nc3cccc(Cl)c3)n2)cc1C
[2] CCN(C)C=Nc1cc(C)c(Oc2ncc(Cl)cn2)cc1C
Exercise: Recorded logPa values differ for 1 and 2 ; which one is higher? Kindly give the label for the entry you pick.
Solution: 1
(1: 1.94, 2: 1.32)

====

- procedure.details: logP by HPLC on reversed-phase column (C 18), EEC Directive 79/831 Annex V.A8
- Format: physicochemical
- recorded.conditions: HPLC, 0.1% aqueous formic acid and acetonitrile, 40° C.; pH 2.3
measured.parameter: logPa

Previously resolved entries follow.
CCCN(C)c1cc(Oc2cc(C)c(N=CN(C)C(C)C)cc2C)ncn1 [Compound 53] | 1.77
CCN(C)c1nc(Oc2cc(C)c(N=CN(C)C(C)C)cc2C)ncc1Cl [Compound 99] | 1.98
CCCN(C)C=Nc1cc(C)c(Oc2ccnc(Oc3cccc(Cl)c3)n2)cc1C [Compound 67] | 2.14
Cc1cc(Oc2ccnc(Oc3ccc(C(C)(C)C)cc3)n2)c(C)cc1N=CN1CCCCC1 [Compound 78] | 2.75
CCCN(C)C=Nc1cc(C)c(Oc2ncc(C)c(C)n2)cc1C [Compound 94] | 1.4

[a] Cc1cc(Oc2ccnc(Oc3ccccc3)n2)c(C)cc1N=CN(C)C(C)C [Compound 66]
[b] CCN(C)C=Nc1cc(C)c(Oc2ncc(C)c(C)n2)cc1C [Compound 93]
[c] CCN(C)C=Nc1cc(C)c(Oc2cc(Cl)nc(C(C)(C)C)n2)cc1C [Compound 59]
Exercise: Sort these molecules on logPa so the largest reading comes first. Would you mind listing the labels in the order asked for?
Solution: c, a, b

[1] Cc1cc(Oc2ccnc(Oc3cccc(Cl)c3)n2)c(C)cc1N=CN(C)C(C)C [Compound 68]
[2] CCN(C)C=Nc1cc(C)c(Oc2cc(C)nc(Cl)n2)cc1C [Compound 3]
Exercise: Could you tell me which of these two has the smaller logPa figure? First: 1 Second: 2 Kindly give the label for the entry you pick.
Solution: 2
(2: 1.45, 1: 2.12)

[P] CCN(C)C=Nc1cc(C)c(Oc2ncc(Cl)c(N(C)CC)n2)cc1C [Compound 89]
[Q] CCN(C)C=Nc1cc(C)c(Oc2ccnc(OC)n2)cc1C [Compound 11]
[R] Cc1cc(Oc2cc(Cl)nc(C(C)(C)C)n2)c(C)cc1N=CN(C)C(C)C [Compound 60]
Exercise: // smallest logPa at index 0, largest at the end Would you mind listing the labels in the order asked for?
Solution: Q, P, R
(Q: 1.16, P: 1.82, R: 2.8)

[P] Cc1cc(Oc2ccnc(Nc3cccc(Cl)c3)n2)c(C)cc1N=CN(C)C(C)C [Compound 29]
[Q] Cc1cc(Oc2ccnc(Cl)n2)c(C)cc1N=CN(C)C(C)C [Compound 25]
Exercise: Recorded logPa values differ for P and Q ; which one is higher? Kindly give the label for the entry you pick.
Solution: P
(P: 2.04, Q: 1.4)

====

- procedure.details: logP by HPLC on reversed-phase column (C 18), EEC Directive 79/831 Annex V.A8
- Type: physicochemical
- recorded.conditions: HPLC, 0.1% aqueous formic acid and acetonitrile, 40° C.; pH 2.3
measured.parameter: logPa

Previously resolved entries follow.
CCCN(C)C=Nc1cc(C)c(Oc2cc(N(C)CC)ncn2)cc1C | 1.6
Cc1cc(Oc2ccnc(N(C)c3ccccc3)n2)c(C)cc1N=CN1CCCCC1 | 1.84
CCCN(C)C=Nc1cc(C)c(Oc2ccnc(Cl)n2)cc1C | 1.44

[I] CCCN(C)c1nccc(Oc2cc(C)c(N=CN(C)CC)cc2C)n1
[II] CCCN(C)C=Nc1cc(C)c(Oc2ncnc(CC)c2Cl)cc1C
Exercise: Could you tell me which of these two has the smaller logPa figure? First: I Second: II Kindly give the label for the entry you pick.
Solution: I

====

- procedure.details: logP by HPLC on reversed-phase column (C 18), EEC Directive 79/831 Annex V.A8
- Assay type: physicochemical
- recorded.conditions: reversed-phase C18 HPLC column; pH 2.3; value in preparation example text; read-out: log P (pH 2.3)
measured.parameter: chromatographic logP

Previously resolved entries follow.
CCN(C)C=Nc1cc(C)c(Oc2ccnc(N(C)c3ccccc3)n2)cc1C | 1.61
Cc1cc(Oc2ccnc(N(C)c3ccccc3)n2)c(C)cc1N | 1.72

[I] Cc1cc(Oc2ccnc(Oc3cccc(Cl)c3C)n2)c(C)cc1N
[II] CCN(C)C=Nc1cc(C)c(Oc2cc(C)nc(Cl)n2)cc1C
[III] CCN(C)c1nc(Oc2cc(C)c([N+](=O)[O-])cc2C)ncc1Cl
Exercise: // smallest chromatographic logP at index 0, largest at the end Would you mind listing the labels in the order asked for?
Solution: II, I, III
(II: 1.45, I: 2.81, III: 4.07)

====

Reported logPa values for a set of compounds
- procedure.details: logP by HPLC on reversed-phase column (C 18), EEC Directive 79/831 Annex V.A8
- Format: physicochemical
- recorded.conditions: measured at pH = 4 (footnote a)

Previously resolved entries follow.
CCN(C)C=Nc1cc(C)c(Oc2cc(-c3cccc(C(F)(F)F)c3)ncn2)cc1C | 3.19^a
CCN(C)C=Nc1cc(C)c(Oc2nccc(C(F)(F)F)n2)cc1C | 0.22^a
CCN(C)C=Nc1cc(C)c(Oc2cc(C(F)(F)F)ncn2)cc1C | 1.85^a
CCN(C)C=Nc1cc(C(C)C)c(Oc2nccc(C(F)(F)F)n2)cc1C | 1.10^a
CCN(C)C=Nc1cc(C)c(Oc2cc(Oc3cccc(C(C)(C)C)c3)ncn2)cc1C | 4.9^a
CCN(C)C=Nc1cc(C)c(Oc2cc(C(C)(C)C)ncn2)cc1C | 1.98^a

Exercise: Look up logPa: CCN(C)C=Nc1cc(C)c(Oc2cc(Oc3cccc(C(F)(F)F)c3)ncn2)cc1C
Solution: 4.35^a
